# experiment: Mouse PK test: plasma concentration after intravenous or oral administration
# Assay type: in vivo, mice (C57BL/6J)
# condition context: C57BL/6J, in vivo, male mice, intravenous administration, 1 mg/kg, read-out: t1/2 (converted)
Starred links: 1 amine or outer side, 2 acyl side, 3 side chain; linkers in the order of their positions; H or OH if unused. Non-standard residues stand in square brackets, D forms with d. Residues, ends and D or L forms follow the SMILES beside them. *: point of attachment. NMedβ3hAla = C[C@H](CC(=O)[*:2])N(C)[*:1]; NMeF = CN[C@@H](Cc1ccccc1)C(=O)O; NMeI = CC[C@H](C)[C@H](NC)C(=O)O; hPhe = N[C@@H](CCc1ccccc1)C(=O)O; NMeβAla = CN(CCC(=O)[*:2])[*:1]; NMeL = CN[C@@H](CC(C)C)C(=O)O; Abu = CC[C@H](N)C(=O)O; Sar = CNCC(=O)O; tBu = CC(C)(C)*
measured parameter: half-life (h)

| compound | measured parameter | value observed |
| --- | --- | --- |
| CC[C@@H]1NC(=O)[C@H](CC(C)C)N(C)C(=O)[C@H](COC(C)(C)C)NC(=O)[C@H]([C@@H](C)CC)N(C)C(=O)[C@H](CCc2ccccc2)NC(=O)[C@H](Cc2ccccc2)N(C)C(=O)[C@H](C(C)C)NC(=O)[C@H](CC(C)C)N(C)C(=O)[C@H](CC(C)C)NC(=O)CCN(C)C(=O)C[C@@H](C)N(C)C(=O)CN(C)C(=O)[C@H](CC(C)C)N(C)C(=O)[C@@H]2CCCN2C1=O [pd065] (cyclo([Abu]P[NMeL][Sar][NMedβ3hAla][NMeβAla]L[NMeL]V[NMeF][hPhe][NMeI]S(tBu)[NMeL])) | half-life | 5.4 |

* * *

Quick list: microsomal CLint at 1 µM per entry.
# experiment: Metabolic stability test: liver microsomal stability assay
# Type: in vitro ADME, mouse
# condition context: male, pH 7.4; mouse liver microsomes 0.5 mg protein/mL, compound 1 µM, presence of NADPH; read-out: Mouse Hepatic Microsome CLh,int NADPH(+)
Starred links: 1 amine or outer side, 2 acyl side, 3 side chain; linkers in the order of their positions; H or OH if unused. Positions of bridges follow the written chain, without caps; N, C: chain ends. Non-standard residues stand in square brackets, D forms with d. Residues, ends and D or L forms follow the SMILES beside them. *: point of attachment. NMedβ3hAla = C[C@H](CC(=O)[*:2])N(C)[*:1]; NMeF = CN[C@@H](Cc1ccccc1)C(=O)O; NMeI = CC[C@H](C)[C@H](NC)C(=O)O; hPhe = N[C@@H](CCc1ccccc1)C(=O)O; NMeβAla = CN(CCC(=O)[*:2])[*:1]; NMeL = CN[C@@H](CC(C)C)C(=O)O; NMeA = CN[C@@H](C)C(=O)O; Piperidide = C1CCN(*)CC1; Abu = CC[C@H](N)C(=O)O; Sar = CNCC(=O)O; tBu = CC(C)(C)*
measured parameter: microsomal CLint at 1 µM (µL/min/mg)

| compound | unit | value observed |
| --- | --- | --- |
| CC[C@H](C)[C@H]1C(=O)N[C@@H]([C@@H](C)O)C(=O)N(C)CC(=O)N(C)[C@@H](CC(C)C)C(=O)N(C)[C@@H](Cc2ccccc2)C(=O)N[C@H](C(=O)N2CCCCC2)CC(=O)N(C)[C@@H](C)C(=O)N[C@@H](CC(C)C)C(=O)N(C)[C@@H](Cc2ccccc2)C(=O)N(C)[C@@H](C)C(=O)N(C)[C@@H](CC(C)C)C(=O)N[C@@H](COC(C)(C)C)C(=O)N(C)[C@@H](C)C(=O)N[C@@H](CC(C)C)C(=O)N1C [pd044] ([NMeA]L[NMeF][NMeA][NMeL]S(tBu)[NMeA]L[NMeI]T[Sar][NMeL][NMeF]D-Piperidide; lactam N-14) | µL/min/mg | 54.3 |
| CC[C@@H]1NC(=O)[C@H](C(C)C)NC(=O)[C@H]([C@@H](C)CC)N(C)C(=O)[C@H](CCc2ccccc2)NC(=O)[C@H](Cc2ccccc2)N(C)C(=O)[C@H]([C@@H](C)CC)NC(=O)[C@H](CC(C)C)N(C)C(=O)[C@H](CC(C)C)NC(=O)CCN(C)C(=O)C[C@@H](C)N(C)C(=O)[C@H](CC(C)C)N(C)C(=O)CNC(=O)[C@@H]2CCCN2C(=O)[C@H](CC(C)C)N(C)C1=O [pd064] (cyclo([Abu][NMeL]PG[NMeL][NMedβ3hAla][NMeβAla]L[NMeL]I[NMeF][hPhe][NMeI]V)) | µL/min/mg | 41.4 |
